Each recorded value in this set is attributed to patent US6685851B2.

Assay procedure: Water added dropwise to 1:1 hydrophobic amine/cosolvent amine blend until turbidity (visible light scattering)
Type: physicochemical
Applied conditions: 1 part Air Products 506 Amidoamine + 1 part cosolvent amine by weight
Reported endpoint: Parts of water added to 2 parts of amine blend yielding a clear solution

As a guide, the following entries are already answered.
[[record]]
compound = "NCCCN1CCN(CCCN)CC1 [Cosolvent F, 1,4-Bis (3-aminopropyl) piperazine, reference compound]"
value_measured = "<4 parts"

[[record]]
compound = "NCCOCCOCCN"
value_measured = "<2 parts"

[[record]]
compound = "NCc1cccc(CN)c1 [Cosolvent I, m-Xylylenediamine, reference compound]"
value_measured = "<5 parts"

[[record]]
compound = "CCCCC(N)CN (centres unmarked) [Cosolvent H, 1,2-Hexanediamine, reference compound]"
value_measured = "<7 parts"

[[record]]
compound = "NC1CCCC1N (centres unmarked)"
value_measured = "<5 parts"


Would you kindly share the measured Parts of water added to 2 parts of amine blend yielding a clear solution for NCC1CCCC(CN)C1 (centres unmarked) ?
>19 parts

Would you kindly share the measured Parts of water added to 2 parts of amine blend yielding a clear solution for CC1(C)CC(N)CC(C)(CN)C1 (centres unmarked) ?
>28 parts

Would you kindly share the measured Parts of water added to 2 parts of amine blend yielding a clear solution for CC(CN)CCCN (centres unmarked) ?
<6 parts

----------
Assay procedure: Water added dropwise to 1:1 hydrophobic amine/cosolvent amine blend until turbidity (visible light scattering)
Type: physicochemical
Applied conditions: 1 part Air Products 2460 Polyamide + 1 part cosolvent amine by weight
Reported endpoint: Parts of water added to 2 parts of amine blend yielding a clear solution

As a guide, the following entries are already answered.
[[record]]
compound = "NCc1cccc(CN)c1 [Cosolvent I, m-Xylylenediamine, reference compound]"
value_measured = "<3.75 parts"

[[record]]
compound = "NCCOCCOCCN"
value_measured = "<2 parts"

[[record]]
compound = "NCC1CCCC(CN)C1 (centres unmarked)"
value_measured = ">10 parts"


# input for lookup
Would you kindly share the measured Parts of water added to 2 parts of amine blend yielding a clear solution for CC1(C)CC(N)CC(C)(CN)C1 (centres unmarked) ?
>22 parts

----------
Listed next: entries and their corresponding Parts of water added to 2 parts of amine blend yielding a clear solution.
Assay procedure: Water added dropwise to 1:1 hydrophobic amine/cosolvent amine blend until turbidity (visible light scattering)
Assay type: physicochemical
Applied conditions: 1 part Air Products 2460 Polyamide + 1 part cosolvent amine by weight

As a guide, the following entries are already answered.
[[record]]
compound = "NC1CCCC1N (stereo not shown) [Cosolvent D, 1,2 Diaminocyclopentane]"
value_measured = "<5 parts"

[[record]]
compound = "CCCCC(N)CN (stereo not shown) [Cosolvent H, 1,2-Hexanediamine, reference compound]"
value_measured = "<3.6 parts"

[[record]]
compound = "NCCCN1CCN(CCCN)CC1 [Cosolvent F, 1,4-Bis (3-aminopropyl) piperazine, reference compound]"
value_measured = "<2 parts"


# input for lookup
Would you kindly share the measured Parts of water added to 2 parts of amine blend yielding a clear solution for CC(CN)CCCN (stereo not shown) [Cosolvent E] ?
3.5 parts
